Literature survey of IC50 (system: cGMP-specific 3',5'-cyclic phosphodiesterase (Homo sapiens, UniProt O76074)).
Label y when IC50 < 30 nM; otherwise n.

Compound: CC1(C)C(=O)Nc2nc(-c3nn(Cc4ccccc4F)c4ncc(F)cc34)nc(C(=O)N3CCCC3)c21 (single isomer, unassigned)
Group: n
//
Compound: CC1(C)C(=O)Nc2nc(-c3nn(Cc4ccccc4F)c4ncc(F)cc34)nc(NCC(O)C(F)(F)F)c21 (single isomer, unassigned)
Group: y
//
Compound: Cc1nc2c(OCc3c(F)cccc3F)cccn2c1-c1nc2c(c(-n3cc(O)cn3)n1)C(C)(C)C(=O)N2
Group: y
//
Compound: CC1(COCc2ccccc2)C(=O)Nc2nc(-c3nn(Cc4ccccc4F)c4ncc(F)cc34)nnc21 (racemic)
Group: n
//
Compound: CC1(C)C(=O)Nc2nc(-c3nn(Cc4ccccc4F)c4ncc(F)cc34)nc(C(=O)NCC3CC3)c21
Group: n
//
Compound: CC1(C(F)(F)F)C(=O)Nc2nc(-c3nn(Cc4ncccc4F)c4ncc(F)cc34)nc(NCC(N)(CF)CF)c21 (racemic)
Group: n

----------
Below are IC50 measurements against UniProt:O76074 drawn from the literature.

Compound: Cn1ccnc1CNc1nc(-c2nn(Cc3ccccc3F)c3ncccc23)nc2c1C(C)(C)C(=O)N2
IC50: 0.43 µM
--
Compound: Cc1cc(Nc2nc(-c3nn(Cc4ccccc4F)c4ncccc34)nc3c2C(C)(C)C(=O)N3)nn1C
IC50: 0.04 µM
--
Compound: CC1(c2nncs2)C(=O)Nc2nc(-c3nn(Cc4ccccc4F)c4ncccc34)ncc21 (racemic)
IC50: 1.2 µM
--
Compound: Cc1ccc2c(-c3nnc4c(n3)NC(=O)C4(C)C)nn(Cc3c(F)ccc(F)c3F)c2n1
IC50: 0.021 µM
--
Compound: CC1(C)C(=O)Nc2nc(-c3nn(Cc4cccc(F)c4F)c4ncc(F)cc34)nc(OCCC(F)(F)F)c21
IC50: 0.84 µM
--
Compound: CC1(C)C(=O)Nc2nc(-c3nn(Cc4ccccc4F)c4ncccc34)nc(N3CCC(F)(F)C3)c21
IC50: 0.13 µM
--
Compound: CCC1(C)C(=O)Nc2nc(-c3nn(Cc4ccccc4F)c4ncc(F)cc34)nnc21 (single isomer, unassigned)
IC50: 0.2 µM

----------
UniProt:O76074 pIC50, compiled from various sources.
pIC50: −log10 of the molar value.

Compound: Cn1cnc(NC(=O)c2nc(-c3nn(Cc4ccccc4F)c4ncccc34)nc3c2C(C)(C)C(=O)N3)n1
Tested Target: UniProt:O76074
pIC50: 7.41
--
Compound: CC1(C)C(=O)Nc2nc(-c3nn(Cc4ccccc4F)c4ncccc34)nc(C(=O)Nc3cncc(F)c3)c21
Tested Target: UniProt:O76074
pIC50: 7.14
--
Compound: Cc1nc2c(cc1F)c(-c1nc(NCC(N)(CF)CF)c3c(n1)NC(=O)C3(C)C)nn2Cc1c(F)ccc(F)c1F
Tested Target: UniProt:O76074
pIC50: 6.71
--
Compound: CC1(C)C(=O)Nc2nc(-c3nn(Cc4ccccc4F)c4cc(Cl)ccc34)nc(C(N)=O)c21
Tested Target: UniProt:O76074
pIC50: 7.00
--
Compound: CC1(C)C(=O)Nc2nc(-c3nn(Cc4ccccc4F)c4ncccc34)nc(NCC3CC3)c21
Tested Target: UniProt:O76074
pIC50: 6.39
--
Compound: C[C@@H](Nc1nc(-c2nn(Cc3ccccc3F)c3ncc(F)cc23)nc2c1C(C)(C)C(=O)N2)C1CC1
Tested Target: UniProt:O76074
pIC50: 6.82
--
Compound: CC1(C)C(=O)Nc2nc(-c3nn(Cc4ccccc4F)c4ncc(F)cc34)nc(NC(C3CC3)C3CC3)c21
Tested Target: UniProt:O76074
pIC50: 6.64
--
Compound: Cn1nccc1-c1nc(-c2nn(Cc3ccccc3F)c3ncccc23)nc2c1C(C)(C)C(=O)N2
Tested Target: UniProt:O76074
pIC50: 6.60
--
Compound: Cc1nccn1-c1nc(-c2nn(Cc3ccccc3F)c3ncccc23)nc2c1C(C)(C)C(=O)N2
Tested Target: UniProt:O76074
pIC50: 6.32
--
Compound: CC1(C)C(=O)Nc2nc(-c3nn(Cc4ccccc4F)c4ncccc34)nc(C(=O)NCC3CCOC3)c21 (racemic)
Tested Target: UniProt:O76074
pIC50: 7.51
--
Compound: Cc1nc2c(cc1F)c(-c1nc(NCC(N)(CF)CF)c3c(n1)NC(=O)C3(C)C(F)(F)F)nn2Cc1ccccc1F (single isomer, unassigned; ent-4)
Tested Target: UniProt:O76074
pIC50: 6.41
--
Compound: Cc1nc(C(C)C)sc1-c1nc(-c2nn(Cc3ccccc3F)c3ncccc23)nc2c1C(C)(C)C(=O)N2
Tested Target: UniProt:O76074
pIC50: 6.30
--
Compound: Cc1nc2c(OCc3c(F)ccc(F)c3F)cccn2c1-c1nc2c(c(C(=O)N3CCC(O)C3)n1)C(C)(C)C(=O)N2 (racemic)
Tested Target: UniProt:O76074
pIC50: 6.40
--
Compound: CC1(C)C(=O)Nc2nc(-c3nn(Cc4ccccc4F)c4ncc(F)cc34)nc(N3CCC(F)(F)CC3)c21
Tested Target: UniProt:O76074
pIC50: 6.40

----------
A compilation of IC50 values for cGMP-specific 3',5'-cyclic phosphodiesterase (Homo sapiens, UniProt O76074) from the published literature.
Class field: derived from IC50; ranges low: < 70 nM; mid: ≥ 70 nM and < 200 nM; high: ≥ 200 nM

Compound: Cc1nc2c(cc1F)c(-c1nc(NCC(N)(CF)CF)c3c(n1)NC(=O)C3(C)C)nn2Cc1ncccc1F
Tested Target: cGMP-specific 3',5'-cyclic phosphodiesterase (Homo sapiens, UniProt O76074)
Group: mid
//
Compound: CC1(C)C(=O)Nc2nc(-c3nn(Cc4ccccc4F)c4ncccc34)nc(N3CCS(=O)(=O)CC3)c21
Tested Target: cGMP-specific 3',5'-cyclic phosphodiesterase (Homo sapiens, UniProt O76074)
Group: mid
//
Compound: CC1(C)C(=O)Nc2nc(-c3nn(Cc4ccccc4F)c4ncc(F)cc34)nc(CCC(F)(F)F)c21
Tested Target: cGMP-specific 3',5'-cyclic phosphodiesterase (Homo sapiens, UniProt O76074)
Group: high
//
Compound: Cc1nc2c(cc1F)c(-c1nnc3c(n1)NC(=O)C3(C)C)nn2Cc1cccc(F)c1F
Tested Target: cGMP-specific 3',5'-cyclic phosphodiesterase (Homo sapiens, UniProt O76074)
Group: low
//
Compound: CC1(C)C(=O)Nc2nc(-c3nn(Cc4ccccc4F)c4ncccc34)nc(NCCn3cccn3)c21
Tested Target: cGMP-specific 3',5'-cyclic phosphodiesterase (Homo sapiens, UniProt O76074)
Group: high
//
Compound: Cc1nc2c(OCc3c(F)ccc(F)c3F)cccn2c1-c1nc2c(c(C(=O)N3CCC(CO)C3)n1)C(C)(C)C(=O)N2 (racemic)
Tested Target: cGMP-specific 3',5'-cyclic phosphodiesterase (Homo sapiens, UniProt O76074)
Group: high
//
Compound: Cc1nc2c(OCc3c(F)ccc(F)c3F)cccn2c1-c1nc2c(c(OCCC(F)(F)F)n1)C(C)(C)C(=O)N2
Tested Target: cGMP-specific 3',5'-cyclic phosphodiesterase (Homo sapiens, UniProt O76074)
Group: mid
//
Compound: CC1(C)C(=O)Nc2nc(-n3nc(Cc4ccccc4F)c4cc(F)ccc43)nc(NCCC(F)(F)F)c21
Tested Target: cGMP-specific 3',5'-cyclic phosphodiesterase (Homo sapiens, UniProt O76074)
Group: mid
//
Compound: CC1(C)C(=O)Nc2nc(-c3nn(Cc4ccccc4F)c4ncc(F)cc34)nc(NCC(N)C(F)(F)F)c21 (stereo not drawn)
Tested Target: cGMP-specific 3',5'-cyclic phosphodiesterase (Homo sapiens, UniProt O76074)
Group: mid
//
Compound: CC1(C)C(=O)Nc2nc(-c3nn(Cc4ccccc4F)c4ncccc34)nc(-n3cc(O)cn3)c21
Tested Target: cGMP-specific 3',5'-cyclic phosphodiesterase (Homo sapiens, UniProt O76074)
Group: low
//
Compound: CC1(C)C(=O)Nc2nc(-c3nn(Cc4ccccc4F)c4cc(Cl)ccc34)nc(C(=O)NCC3CC3)c21
Tested Target: cGMP-specific 3',5'-cyclic phosphodiesterase (Homo sapiens, UniProt O76074)
Group: mid
//
Compound: CONC(=O)c1nc(-c2nn(Cc3ccccc3F)c3ncccc23)nc2c1C(C)(C)C(=O)N2
Tested Target: cGMP-specific 3',5'-cyclic phosphodiesterase (Homo sapiens, UniProt O76074)
Group: low
//
Compound: COC1CN(c2nc(-c3nn(Cc4ccccc4F)c4ncccc34)nc3c2C(C)(C)C(=O)N3)C1
Tested Target: cGMP-specific 3',5'-cyclic phosphodiesterase (Homo sapiens, UniProt O76074)
Group: mid
//
Compound: Cc1cc(C)n(-c2nc(-c3nn(Cc4ccccc4F)c4ncccc34)nc3c2C(C)(C)C(=O)N3)n1
Tested Target: cGMP-specific 3',5'-cyclic phosphodiesterase (Homo sapiens, UniProt O76074)
Group: high
//
Compound: CSCCCNC(=O)c1nc(-c2nn(Cc3ccccc3F)c3ncccc23)nc2c1C(C)(C)C(=O)N2
Tested Target: cGMP-specific 3',5'-cyclic phosphodiesterase (Homo sapiens, UniProt O76074)
Group: low
